System: HepG2
run description: GSK_TCMDC: Percent inhibition of human HepG2 cell line. Test compounds present at 10uM.
Format: functional
Exercise: state measured Inhibition for each of the compounds provided.
Please respond with the number in % and leave the unit unwritten.

So, `O=C(/C=C/c1ccc(Cl)c(Cl)c1)NCCCCCN1CCC(NC(=S)Nc2ccc(F)cc2F)CC1` ? Its Inhibition was 20

// Inhibition lookup, compound = `COc1ccc(N2CCc3c(-c4cccc5cnccc45)cc(C)nc32)c(C)c1` , result: 20

GET /value?item= CCCC(C)Nc1nc(C)cc(N[C@@H](Cc2ccccc2)C(=O)NCCc2ccccc2)n1.O=C(O)C(F)(F)F (stereo partly drawn) &field=Inhibition returns 11

Inhibition recorded for this compound, Br.CC(CCON1C(N)=NC(N)=NC1(C)C)c1ccc(Cl)c(Cl)c1 (stereo not drawn) , is 60

Noted for `O=C(CN1CCN(S(=O)(=O)C=Cc2ccccc2)CC1)Nc1cc(C(F)(F)F)ccc1Cl` : its Inhibition reads 23

Entry `Cc1nc2c(c(O)c1Cl)-c1ccc(Oc3cccc(C(F)(F)F)c3)cc1C2=O` — recorded Inhibition = 25

Inhibition in this record for `Fc1ccc(C=NN=c2cc[nH]c3ccccc23)cc1` : 21

Recorded Inhibition (compound `Cl.Nc1cc(C(F)(F)F)ccc1Cl` ): 8

---

System: Plasmodium falciparum
run description: GSK_TCMDC: Inhibition of Plasmodium falciparum Dd2 in whole red blood cells, using parasite LDH activity as an index of growth. Test compounds present at 2uM
Format: functional
Task for the reader: assign each of the following compounds its reported Inhibition.
Give just the number in %; leave the unit off.

Field Inhibition (Plasmodium falciparum), entry `CCC(C)(C)c1ccc(OCCCC(=O)Nc2ccc(Cl)c([N+](=O)[O-])c2)c(C(C)(C)CC)c1` : 88

Summary line: `COc1ccc(-c2ccccc2OCCCNc2nc(NCCc3ccc(O)cc3)nc(N3CCNCC3)n2)cc1.O=C(O)C(F)(F)F` , Plasmodium falciparum, reported Inhibition = 3

Entry `COc1c(CN2CCOCC2)cccc1-c1cc2c(-c3ccc(C(=O)O)c(C(C)C)c3)ccnc2[nH]1.O=C(O)C(F)(F)F` , tested on Plasmodium falciparum, has a reported Inhibition of 90

For the compound CCCC(CNCc1cccc(OCC)c1)CNc1cc(=O)c2ccccc2[nH]1 (configuration not stated) , the measured Inhibition on Plasmodium falciparum was 97

Field Inhibition (system: Plasmodium falciparum) for entry Cl.OC(c1cc(C(F)(F)F)nc2c(F)cccc12)C1CCCCN1 (configuration not stated) = 74

Entry `COc1cccc(C(=O)Nc2ccc(Nc3nc(C)cc(N(C)C)n3)cc2)c1` , tested on Plasmodium falciparum, has a reported Inhibition of 33

# value of Inhibition, Plasmodium falciparum, item `Cc1ccc(C)c(Cn2c(N3CCC(C(=O)NCc4cccs4)CC3)nc3ccccc32)c1` = 73

---

Test system: Plasmodium falciparum
run description: GSK_TCMDC: Inhibition of Plasmodium falciparum 3D7 in whole red blood cells, using parasite LDH activity as an index of growth. Test compounds present at 2uM
Assay type: functional
What Inhibition was measured for each of the following?
Express the reported value numerically, then name its unit.

Value of measured Inhibition for the entry `CC(C)(C)c1ccc2oc(=O)n(C3CCN(C(=O)c4ccc([N+](=O)[O-])o4)CC3)c2c1` : 94%

Given item `CCn1ncc(Cl)c1CN(C)S(=O)(=O)c1ccc2ccccc2c1` , the value recorded as its Inhibition is 100%

Inhibition reported for this molecule Cc1nc(-c2ccc3c(c2)CCN(CCC2CCC(NC(=O)c4cc5cccc(Cl)c5[nH]4)CC2)CC3)no1.Cl (stereo not given) : 100%

Lab note: `CO/C(=C\C=C\c1cc2cc(Cl)c(Cl)cc2[nH]1)C(=O)NCCCN1CCN(c2cccc(CCO)c2)CC1` gave Inhibition of 100%

For `COc1ccc(NC(=O)CCNc2cc(C)nc(NCCc3ccc(F)cc3)n2)cc1.O=C(O)C(F)(F)F` the molecule record lists Inhibition as 98%

Taken from ChEMBL document CHEMBL1157539.
